tested on: normal primary NK cells, pool 3 (3 donors) (IL-2 2.5 ng/mL); test: percent inhibition of viability; higher = more inhibition; conditions: 72 h; 1000 nM
observationType: percent inhibition of viability (%)
Reply numerically in %, unit not repeated.

INPUT: Recall the reported percent inhibition of viability of COc1cc(CCc2cc(NC(=O)c3ccc(N4CC(C)NC(C)C4)cc3)n[nH]2)cc(OC)c1 (stereo not drawn) [AZD4547] (max concentration tested 1000 nM) when tested on normal primary NK cells, pool 3 (3 donors) (IL-2 2.5 ng/mL).
OUTPUT: 6.54

INPUT: Please look at CN(C)C(=N)NC(=N)N [Metformin] (max concentration tested 100000 nM) and tell me its recorded percent inhibition of viability on normal primary NK cells, pool 3 (3 donors) (IL-2 2.5 ng/mL).
OUTPUT: 5.02

INPUT: Please indicate recorded percent inhibition of viability of C[C@]12CC[C@@H]3c4ccc(O)cc4C[C@@H](CCCCCCCCC[S+]([O-])CCCC(F)(F)C(F)(F)F)[C@H]3[C@@H]1CC[C@@H]2O (stereo partly drawn) [Fulvestrant] (max concentration tested 1000 nM) measured with normal primary NK cells, pool 3 (3 donors) (IL-2 2.5 ng/mL).
OUTPUT: -3.36

* * *

test system: normal NK cells expanded with K562-aAPC; assay: percent inhibition of viability; higher = more inhibition; settings: 72 h; IL-2 2.5 ng/mL; 1000 nM
observationType: percent inhibition of viability (%)
The reply should be a number in %, with the unit left off.

INPUT: Give reported percent inhibition of viability for Cc1cc2c(F)c(Oc3ncnn4cc(OC[C@@H](C)O)c(C)c34)ccc2[nH]1 [Brivanib] (max concentration tested 1000 nM) (normal NK cells expanded with K562-aAPC)
OUTPUT: -2.22

INPUT: Provide measured percent inhibition of viability on normal NK cells expanded with K562-aAPC for O=C(CCCCCCC(=O)Nc1ccc([C@H]2O[C@@H](CSc3nc(-c4ccccc4)c(-c4ccccc4)o3)C[C@@H](c3ccc(CO)cc3)O2)cc1)NO [Tubacin] (max concentration tested 10000 nM) please.
OUTPUT: 7.82

INPUT: Fill: percent inhibition of viability (normal NK cells expanded with K562-aAPC) for this compound CC1(C)NC(=O)N(c2ccc([N+](=O)[O-])c(C(F)(F)F)c2)C1=O [Nilutamide] (max concentration tested 10000 nM)
OUTPUT: -0.84

INPUT: Print normal NK cells expanded with K562-aAPC percent inhibition of viability for c1ccc(Cn2c(-c3ccc(OC[C@H](C4CCNCC4)n4c(-c5ccccc5)nc5ccccc54)cc3)nc3ccccc32)cc1 [deltarasin] (max concentration tested 10000 nM) .
OUTPUT: -4.59

INPUT: Give measured percent inhibition of viability for O=C(CCCCCCNC(=O)c1cnc(N(c2ccccc2)c2ccccc2)nc1)NO [Rocilinostat] (max concentration tested 10000 nM) (normal NK cells expanded with K562-aAPC).
OUTPUT: 24.8

INPUT: # return percent inhibition of viability for CCn1c(C(=O)N(C2CC2)C2CC2)cc2c3c(ncn3C)c(Nc3cc(C)n(C)n3)nc21 (max concentration tested 10000 nM) , test system: normal NK cells expanded with K562-aAPC
OUTPUT: 16

* * *

tested on: normal primary NK cells, pool 1 (3 donors), resting (IL-2 0 ng/mL); assay: percent inhibition of viability; higher = more inhibition; settings: 72 h; 25 nM
Would you kindly list percent inhibition of viability for each of these molecules?

INPUT: Provide percent inhibition of viability, tested on normal primary NK cells, pool 1 (3 donors), resting (IL-2 0 ng/mL), for COc1ccc(Cl)c(Nc2nc3ccccc3nc2NS(=O)(=O)c2cccc(NC(=O)C(C)(C)N)c2)c1 [Pilaralisib] (max concentration tested 2500 nM) .
OUTPUT: 8.93%

INPUT: Quote percent inhibition of viability with test system normal primary NK cells, pool 1 (3 donors), resting (IL-2 0 ng/mL) for COc1ccc2c(OCc3nnc4ccc(-c5ccccc5)nn34)ccnc2c1 [AMG-208] (max concentration tested 2500 nM)
OUTPUT: 7.27%

INPUT: Look up and report measured percent inhibition of viability (normal primary NK cells, pool 1 (3 donors), resting (IL-2 0 ng/mL)) for the following molecule: O=C(Nc1cc(Cl)cc2c1[nH]c1cnccc12)c1cccnc1 [PS-1145] (max concentration tested 25000 nM)
OUTPUT: -30.6%

INPUT: Name the value of percent inhibition of viability reported for C[C@@H]1CN(CC(=O)Nc2ccc3c(c2)Cc2cccc(-c4cc(=O)cc(N5CCOCC5)o4)c2S3)C[C@H](C)O1 (max concentration tested 25000 nM) when tested on normal primary NK cells, pool 1 (3 donors), resting (IL-2 0 ng/mL).
OUTPUT: 6.26%
